- assay_explanation: AUC (0-t) in Cynomolgus monkey rat at 5 mg/kg, po measured upto 24 hrs
- Assay type: ADME, organism-based, Macaca fascicularis
- Design: route oral, dose 5 mg/kg, time <=24
- condition_label: in vivo
measurement_kind: AUC(0-t) at 24 h (ng·h/mL)
One number for each entry, in ng·h/mL.

>>> measured("C[C@H](NCc1ccc(OCc2cccc(F)c2)cc1)C(N)=O [SAFINAMIDE]")
13100

Qu. Retrieve AUC(0-t) at 24 h measured for NC(=O)[C@@H]1C[C@H](F)CN1Cc1ccc(OCc2cccc(F)c2)cc1 and print it.
Ans. 11300

---

- assay_explanation: Apparent permeability in MDCK-MDR1 cells from basal to apical side at 10 uM
- Format: ADME, cell-based, Canis lupus familiaris
- condition_label: dog
measurement_kind: Papp B→A at 10 µM (×10⁻⁶ cm/s)
One number for each entry, in ×10⁻⁶ cm/s.

Qu. Retrieve Papp B→A at 10 µM measured for NC(=O)[C@@H]1C[C@H](F)CN1Cc1ccc(OCc2cccc(F)c2)cc1 and print it.
Ans. 22.8

---

- assay_explanation: AUC (0-t) in Sprague dawley rat at 1 mg/kg, iv measured upto 24 hrs
- Type: ADME, organism-based
- Parameters: route intravenous, dose 1 mg/kg, time <=24
- condition_label: in vivo
For each record, write down the corresponding AUC(0-t) at 24 h.
Answers are plain numbers, in ng·h/mL.

Before answering, review these 3 worked examples.
>>> measured("NC(=O)[C@@H]1CCCN1Cc1ccc(OCc2cccc(F)c2)cc1")
347
>>> measured("C[C@H](NCc1ccc(OCc2cccc(F)c2)cc1)C(N)=O [SAFINAMIDE]")
253
>>> measured("NC(=O)[C@@H]1C[C@H](F)CN1Cc1ccc(OCc2cccc(F)c2)cc1")
505

--- query ---
Qu. Retrieve AUC(0-t) at 24 h measured for C[C@H]1C[C@@H](C(N)=O)N(Cc2ccc(OCc3cccc(F)c3)cc2)C1 and print it.
Ans. 209

---

For each record, write down the corresponding half-life.
- assay_explanation: Half life in Sprague dawley rat at 5 mg/kg, po measured upto 24 hrs
- Format: ADME, organism-based
- condition_label: in vivo
Answers are plain numbers, in min.

Before answering, review these 3 worked examples.
>>> measured("NC(=O)[C@@H]1C[C@H](F)CN1Cc1ccc(OCc2cccc(F)c2)cc1")
34.2
>>> measured("C[C@H]1C[C@@H](C(N)=O)N(Cc2ccc(OCc3cccc(F)c3)cc2)C1")
57.6
>>> measured("C[C@H](NCc1ccc(OCc2cccc(F)c2)cc1)C(N)=O [SAFINAMIDE]")
61.2

Qu. Retrieve half-life measured for NC(=O)[C@@H]1CCCN1Cc1ccc(OCc2cccc(F)c2)cc1 and print it.
Ans. 76.2

---

- target_desc: Amine oxidase [flavin-containing] A (Homo sapiens, UniProt P21397)
- Sequence (P21397 whole entry): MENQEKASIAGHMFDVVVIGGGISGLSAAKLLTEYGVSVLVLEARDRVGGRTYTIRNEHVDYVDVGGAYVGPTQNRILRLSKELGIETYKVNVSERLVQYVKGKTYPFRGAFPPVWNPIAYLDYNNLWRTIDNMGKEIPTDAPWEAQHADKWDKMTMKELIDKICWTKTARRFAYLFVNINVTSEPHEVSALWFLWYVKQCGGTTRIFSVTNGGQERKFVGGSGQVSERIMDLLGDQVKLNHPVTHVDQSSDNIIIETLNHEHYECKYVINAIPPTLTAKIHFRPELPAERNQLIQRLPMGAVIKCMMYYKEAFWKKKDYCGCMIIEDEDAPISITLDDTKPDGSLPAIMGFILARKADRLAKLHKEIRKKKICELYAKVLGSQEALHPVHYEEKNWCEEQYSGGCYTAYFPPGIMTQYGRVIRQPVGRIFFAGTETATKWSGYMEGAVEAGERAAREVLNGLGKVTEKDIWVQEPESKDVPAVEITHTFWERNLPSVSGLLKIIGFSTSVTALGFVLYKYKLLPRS
- assay_explanation: Inhibition of recombinant human MAO-A expressed in Sf9 cells preincubated for 15 min followed by addition of p-tyramine and measured after 60 min by Luminex assay
For each record, write down the corresponding pIC50.
Numbers only, as −log10 of the molar value.

>>> measured("NC(=O)[C@@H]1C[C@H](O)CN1Cc1ccc(OCc2cccc(F)c2)cc1")
4.07
>>> measured("NC(=O)[C@@H]1C[C@H](F)CN1Cc1ccc(OCc2cccc(F)c2)cc1Cl")
5.29

Hi team, please reply with pIC50 for each item in this list.
1. NC(=O)[C@H]1C[C@H](F)CN1Cc1ccc(OCc2cccc(F)c2)cc1
2. NC(=O)[C@@H]1C[C@@H](F)CN1Cc1ccc(OCc2cccc(F)c2)cc1
3. C[C@@H]1C[C@@H](C(N)=O)N(Cc2ccc(OCc3cccc(F)c3)cc2)C1
4. NC(=O)[C@@H]1C[C@H](F)CN1Cc1ccc(OCc2cccc(F)c2)cc1F

Ans.
1. 5.17
2. 4.62
3. 4.38
4. 4.53

Hi team, please reply with pIC50 for each item in this list.
1. Cc1cc(OCc2cccc(F)c2)ccc1CN1C[C@@H](F)C[C@H]1C(N)=O
2. NC(=O)[C@@H]1C[C@@H](F)CN1Cc1ccc(OCc2cccc(F)c2)cc1F
3. C[C@H]1C[C@@H](C(N)=O)N(Cc2ccc(OCc3cccc(F)c3)cc2)C1

Ans.
4.69
4.55
4.56

---

- assay_explanation: Volume of distribution at steady state in Sprague dawley rat at 1 mg/kg, iv measured upto 24 hrs
- Format: ADME, organism-based
- condition_label: in vivo, read-out: Vdss
measurement_kind: Vd (L/kg)
Numbers only, in L/kg.

Before answering, review these 3 worked examples.
>>> measured("C[C@H]1C[C@@H](C(N)=O)N(Cc2ccc(OCc3cccc(F)c3)cc2)C1")
4.56
>>> measured("C[C@H](NCc1ccc(OCc2cccc(F)c2)cc1)C(N)=O [SAFINAMIDE]")
4.21
>>> measured("NC(=O)[C@@H]1C[C@H](F)CN1Cc1ccc(OCc2cccc(F)c2)cc1")
1.37

--- query ---
Qu. Retrieve Vd measured for NC(=O)[C@@H]1CCCN1Cc1ccc(OCc2cccc(F)c2)cc1 and print it.
Ans. 1.11

---

- assay_explanation: Cmax in Sprague dawley rat at 5 mg/kg, po measured upto 24 hrs
- Type: ADME, organism-based
- Parameters: route oral, dose 5 mg/kg, time <=24
- condition_label: in vivo
measurement_kind: Cmax (ng/mL)
One number for each entry, in ng/mL.

>>> measured("C[C@H]1C[C@@H](C(N)=O)N(Cc2ccc(OCc3cccc(F)c3)cc2)C1")
69.1
>>> measured("NC(=O)[C@@H]1CCCN1Cc1ccc(OCc2cccc(F)c2)cc1")
163
>>> measured("C[C@H](NCc1ccc(OCc2cccc(F)c2)cc1)C(N)=O [SAFINAMIDE]")
423

--- query ---
Qu. Retrieve Cmax measured for NC(=O)[C@@H]1C[C@H](F)CN1Cc1ccc(OCc2cccc(F)c2)cc1 and print it.
Ans. 1000

---

- assay_explanation: Cmax in Sprague dawley rat at 1 mg/kg, iv measured upto 24 hrs
- Type: ADME, organism-based
- Set-up: route intravenous, dose 1 mg/kg, time <=24
- condition_label: in vivo
For each record, write down the corresponding Cmax.
Numbers only, in ng/mL.

>>> measured("C[C@H](NCc1ccc(OCc2cccc(F)c2)cc1)C(N)=O [SAFINAMIDE]")
282
>>> measured("NC(=O)[C@@H]1C[C@H](F)CN1Cc1ccc(OCc2cccc(F)c2)cc1")
690
>>> measured("C[C@H]1C[C@@H](C(N)=O)N(Cc2ccc(OCc3cccc(F)c3)cc2)C1")
174

--- query ---
Qu. Retrieve Cmax measured for NC(=O)[C@@H]1CCCN1Cc1ccc(OCc2cccc(F)c2)cc1 and print it.
Ans. 809

---

- assay_explanation: Plasma protein binding in dog assessed as unbound fraction at 1 uM measured after 5 hrs by LC-MS/MS analysis
- Assay type: ADME, cell-free, Canis lupus familiaris
measurement_kind: fraction unbound at 5 h, 1 µM

Qu. Retrieve fraction unbound at 5 h, 1 µM measured for NC(=O)[C@@H]1C[C@H](F)CN1Cc1ccc(OCc2cccc(F)c2)cc1 and print it.
Ans. 0.0429

---

- assay_explanation: Plasma protein binding in rat assessed as unbound fraction at 1 uM measured after 5 hrs by LC-MS/MS analysis
- Format: ADME, cell-free
measurement_kind: fraction unbound at 5 h, 1 µM

Qu. Retrieve fraction unbound at 5 h, 1 µM measured for NC(=O)[C@@H]1C[C@H](F)CN1Cc1ccc(OCc2cccc(F)c2)cc1 and print it.
Ans. 0.0504

---

- assay_explanation: Plasma protein binding in human assessed as unbound fraction at 1 uM measured after 5 hrs by LC-MS/MS analysis
- Format: ADME, cell-free
measurement_kind: fraction unbound at 5 h, 1 µM
One number for each entry.

Qu. Retrieve fraction unbound at 5 h, 1 µM measured for NC(=O)[C@@H]1C[C@H](F)CN1Cc1ccc(OCc2cccc(F)c2)cc1 and print it.
Ans. 0.0363

---

- assay_explanation: Plasma protein binding in mouse assessed as unbound fraction at 1 uM measured after 5 hrs by LC-MS/MS analysis
- Type: ADME, cell-free
measurement_kind: fraction unbound at 5 h, 1 µM
Give bare numbers.

Qu. Retrieve fraction unbound at 5 h, 1 µM measured for NC(=O)[C@@H]1C[C@H](F)CN1Cc1ccc(OCc2cccc(F)c2)cc1 and print it.
Ans. 0.0516

---

- target_desc: Amine oxidase [flavin-containing] B (Homo sapiens, UniProt P27338)
- Sequence (P27338 whole entry): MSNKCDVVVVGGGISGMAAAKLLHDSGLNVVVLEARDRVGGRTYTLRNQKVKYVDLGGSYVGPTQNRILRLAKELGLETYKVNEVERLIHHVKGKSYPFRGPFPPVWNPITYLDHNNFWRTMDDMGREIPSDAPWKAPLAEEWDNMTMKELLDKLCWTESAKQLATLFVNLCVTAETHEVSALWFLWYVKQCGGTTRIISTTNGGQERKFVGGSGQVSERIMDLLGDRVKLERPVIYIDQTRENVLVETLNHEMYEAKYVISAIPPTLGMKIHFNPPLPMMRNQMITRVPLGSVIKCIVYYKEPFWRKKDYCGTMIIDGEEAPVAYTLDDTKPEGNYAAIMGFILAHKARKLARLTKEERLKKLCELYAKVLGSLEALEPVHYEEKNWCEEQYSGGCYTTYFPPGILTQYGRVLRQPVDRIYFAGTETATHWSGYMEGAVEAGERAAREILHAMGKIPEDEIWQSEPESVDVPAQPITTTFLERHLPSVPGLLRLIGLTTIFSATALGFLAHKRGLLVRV
- assay_explanation: Inhibition of recombinant human MAO-B expressed in Sf9 cells preincubated for 15 min followed by addition of benzylamine and measured after 60 min by Luminex assay
For each record, write down the corresponding IC50.
Answers are plain numbers, in nM.

Before answering, review these 3 worked examples.
>>> measured("NC(=O)[C@H]1C[C@H](F)CN1Cc1ccc(OCc2cccc(F)c2)cc1")
709
>>> measured("NC(=O)[C@@H]1C[C@@H](F)CN1Cc1ccc(OCc2cccc(F)c2)cc1")
772
>>> measured("NC(=O)[C@@H]1C[C@H](O)CN1Cc1ccc(OCc2cccc(F)c2)cc1")
431

Qu. Give IC50 for this entry on Amine oxidase [flavin-containing] B (Homo sapiens, UniProt P27338): Cc1cc(OCc2cccc(F)c2)ccc1CN1C[C@@H](F)C[C@H]1C(N)=O
Ans. 820

meta.source: ChEMBL document CHEMBL5042493
